- procedure details: probe aInhba binding on compound microarray – biochemical, small-molecule microarray, 635/667 nm fluorescence, primary screen (AID 1148);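 further: score merges 667nm spot fluorescence with signal-to-noise for antibody binding to printed compounds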
- condition: higher = more signal
Note: every record was labeled by where its composite z-score sits among class A (below -0.1), class B (-0.1 to below 0.02), class C (0.02 or more)

Use these answered entries as a reference point.
- molecule: "NC(=O)[C@@]1(CCS(=O)(=O)c2ccccc2)N=C(c2ccc(OCCCO)cc2)O[C@H]1c1ccccc1"
  label class: "class C"
- molecule: "[N-]=[N+]=NCc1ccccc1C[C@]1(C(=O)N2CCOCC2)N=C(c2ccc(OCCCO)cc2)O[C@H]1c1ccccc1"
  label class: "class B"
- molecule: "CCCCN1CC=CC23O[C@@H]4C=CCCOC(=O)C4[C@H]2C(=O)N(CCCO)[C@@H]3C1=O (stereo not given in full)"
  label class: "class A"
- molecule: "COC(=O)c1nc2oc1CC[C@@H](CO)NC(=O)N(C)Cc1cn(nn1)C[C@H](Cc1ccccc1)NC2=O"
  label class: "class B"

Dear colleague, I would appreciate it if you could identify the bin for "COc1ccc([Si](C)(C)[C@H]2[C@H](CC(=O)N3Cc4ccccc4C[C@H]3CO)O[C@@]3(C(=O)N(Cc4cccc(I)c4)c4ccccc43)[C@@H]2C)cc1" and reply at your convenience.
class B

Sort O=C1OCCC/C=C\[C@H]2OC34C=CCN(CCN5CCOCC5)C(=O)[C@H]3N(CCO)C(=O)[C@@H]4C12 (stereo not given in full) into one of the categories.
class A

Class? Entry: "CC(=O)NCCCC[C@@H]1NC(=O)[C@@H]2C[C@H](C(=O)NCCCCCC[N+](C)(C)C)[C@H](c3cccc(OCCO)c3)N2C1=O"
class B

Input "COC(=O)c1c2oc(c1C(=O)OC)C(=O)N[C@H](Cc1ccccc1)Cn1nncc1C1(CCCCC1)NC(=O)N[C@H](CO)CC2" ; output its category
class B

Band for C=CCC(OC(C)=O)[C@@H]1[C@@H](N(Cc2ccc(-c3cccc(C(F)(F)F)c3)o2)C(=O)Cc2ccc(OC)cc2)c2cc(OCCCO)ccc2N1C(=O)Cc1ccc(OC)cc1 (stereo not given in full) ?
class A

Where would CN1C(=O)C2C=CC(C(O)c3ccccc3)N(NC(=O)OC(C)(C)C)C2C1=O (stereo not given) land among the classes by reported composite z-score?
class A

Each molecule maps to one class by composite z-score. Which class for "C=C(C(=O)CC[C@@H](OC(=O)c1cccnc1)c1ccc(OCCO)cc1)C(C)C" ?
class A

For this molecule, which bin applies? "COC(=O)[C@@]1(Cc2ccc(F)cc2)[C@H]2c3cc(C(=O)N(C)C)n(Cc4ccccn4)c3C[C@H]2CN1C(=O)c1ccccc1"
class C

// bin(item) where item = "C=C[C@@H](C)[C@@H](OC(=O)Nc1ccc(OC)cc1)c1ccc(O)c2ccccc12"
class A

Given "Cc1ccc(S[C@]2(C(=O)NCCN3CCOCC3)CC(=O)N(C3CCCCC3)[C@@H]2c2ccc(CO)cc2)cc1" , name the class its composite z-score places it in.
class C

Exercise: read the entry "O=C(NCc1ccccc1)[C@@H]1c2ccccc2C(=O)N(Cc2cc(F)cc(C(F)(F)F)c2)[C@H]1c1ccc(CO)cc1" and state which class it falls under.
class C

====

- procedure details: probe aCHRDL2 binding to arrayed compounds – biochemical, biotinylated probe, 635/667 nm fluorescence, primary screen (AID 1100)
- condition: small-molecule microarray, higher = more signal
composite z-score below 1 gives no (0); composite z-score at or above it gives yes (1).

Worked cases, answers included:
- molecule: "NC(=O)NCC#Cc1ccc2c(c1)[C@]1(C(=O)N2)[C@H](c2ccccc2OCCO)N2[C@H](c3ccccc3)[C@H](c3ccccc3)OC(=O)[C@H]2[C@@H]1C(=O)N1CCCCCCC1"
  label class: "yes (1)"
- molecule: "CCCNC(=O)[C@@]1(C)c2ccccc2C(=O)N(Cc2cc(C(F)(F)F)cc(C(F)(F)F)c2)[C@H]1c1ccc(CO)cc1"
  label class: "no (0)"
- molecule: "O=C(NCC(F)(F)F)[C@@H]1c2ccccc2C(=O)N(Cc2ccccc2)[C@H]1c1ccc(CO)cc1"
  label class: "yes (1)"
- molecule: "CC(C)C[C@@H]1NC(=O)[C@@H]2C[C@H](C(=O)NCCCCN(C)C)[C@H](c3ccc(O)cc3)N2C1=O"
  label class: "no (0)"
- molecule: "CCCCCN1CC=CC23O[C@@H]4C=CCCOC(=O)C4[C@H]2C(=O)N(CCCO)[C@@H]3C1=O (some centres not stated)"
  label class: "no (0)"
- molecule: "O=C(N1CCCCC1)[C@]1(CCS(=O)(=O)c2ccccc2)N=C(c2ccc(OCCCO)cc2)O[C@@H]1c1ccccc1"
  label class: "yes (1)"

Please tell me: is the molecule "C=C(CCCC)C(=O)CC[C@H](OC(=O)c1ccccc1-c1ccccc1C(=O)O)c1ccc(CO)o1" at or over 1 in terms of composite z-score?
no (0)
